- system.under.test: thrombin (Homo sapiens, UniProt P00734)
- Construct: converts the zymogen prothrombin into the active procoagulant thrombin
- measurement.protocol: Thrombin amidolytic assay (chromogenic substrate Chromozym TH)
- Type: biochemical
- condition.context: room temperature, pH 7.5, 5 minutes preincubation
measurement.type: IC50 (nM)
Use nM as the unit, but write only the number.

Task item: Report IC50 for "N=C(N)NCCC[C@H](NC(=O)Cn1cccc(NS(=O)(=O)Cc2ccccc2)c1=O)C(=O)c1nccs1"
Reply: 8
